Hey, just so you know, these numbers are from paper PMC9170038.

Target: MS2 coat protein, dlFG mutant (Escherichia phage MS2, UniProt P03612, del68-81insG)
Assay: 4 mM Mg2+; no ligand; RNA-MaP array; 100 mM Tris-HCl pH 7.5, 80 mM KCl, 4 mM MgCl2, 0.1 mg/mL BSA, 1 mM DTT, 0.01 mg/mL yeast tRNA, 0.01% Tween-20; protein 1.5 nM to 3 uM; 37 C (Table S3)
Details: chain copies: 2; label: tethered by stalled RNA polymerase
Readout Name: Kd

>>> readout_value("Eterna 6393566 (Inverted Small Loop Exclusion NG 3) (ssRNA) RNA: AGCACGAAAGUGCAACGAUGUACGAGAAGGACAUGAGGAUCACCCAUGUUGCUGUAACUGCUUAUGUAGGAUAUCGUACAUCGA")
"5.14 nM"
>>> readout_value("Eterna 6423537 (Small Loop Exclusion NG 1) (ssRNA) RNA: GAGUAGAUCCGAGGAUAUACAAUCCGGAAACGGUACAUGAGGAUCACCCAUGUAGAAGGCGGAUCUACAGGUACUAAAGUACCU")
"5.63 nM"
>>> readout_value("Eterna 7682723 (Same State - Arginine A) (ssRNA) RNA: AAAUUCUUUUUUUUAUUUAACUUUUCAGAAGGAGCGUGGUAGUUCACAGGUAGGUCGCUGAAUUUUGGACUAGUGAUGUUAGUUA")
"> 3000 nM"
>>> readout_value("Eterna 1142 (Exclusion - Theophylline A) (ssRNA) RNA: UGCAUCAGUGCCUUUGAUCUAUUCCUGGAUACCAGAUCCUACUUGAUCCCUUGGCAGCCAUACGGGAGUGAUGUUCCAUGUAUCC")
"> 3000 nM"

Moving on to another binder below.
Input line: Look up Kd for this binder: Eterna 7683541 (Same State - FMN B) (ssRNA) RNA: UAUUAAUUGUCAGGAUAUCGUAAACGAGUGAUGUUCGUAUAUCGACGAUAGUCGAUUCUAUCUAAACGAGAAGGGACAUUAUUUA
Output line: > 3000 nM
